target: human recombinant ER-β (Homo sapiens, UniProt Q92731); assay: Solid phase ER binding assay (3H-estradiol competition), ER-β; conditions: competition with 30 nM 3H-estradiol, room temperature, 1 hour; average of at least 3 experiments; read-out: Solid Phase ER Binding Ki, ER-β
Sequence (Q92731 whole entry): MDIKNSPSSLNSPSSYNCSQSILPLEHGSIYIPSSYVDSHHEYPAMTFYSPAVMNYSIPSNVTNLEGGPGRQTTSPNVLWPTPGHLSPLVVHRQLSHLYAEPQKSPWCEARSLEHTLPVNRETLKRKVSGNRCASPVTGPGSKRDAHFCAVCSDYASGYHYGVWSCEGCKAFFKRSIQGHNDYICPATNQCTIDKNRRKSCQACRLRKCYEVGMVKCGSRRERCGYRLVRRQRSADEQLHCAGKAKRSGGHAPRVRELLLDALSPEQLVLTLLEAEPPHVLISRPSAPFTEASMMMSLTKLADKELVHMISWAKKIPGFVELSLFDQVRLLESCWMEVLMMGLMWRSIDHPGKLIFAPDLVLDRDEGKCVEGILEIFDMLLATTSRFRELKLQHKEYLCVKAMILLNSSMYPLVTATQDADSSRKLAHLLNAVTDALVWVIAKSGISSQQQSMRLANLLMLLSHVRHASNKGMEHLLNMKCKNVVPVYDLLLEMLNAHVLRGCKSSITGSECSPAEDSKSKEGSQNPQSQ
Measured quantity: Ki (nM)
One number for each entry, in nM.

Recorded Ki of O=c1oc2cc(O)ccc2c(Cc2ccc(OCCN3CCCCC3)cc2)c1-c1ccccc1 [Compound No. 1] , please. 7.3
